The measured values listed here are drawn from PubChem BioAssay AID488922.

Molecular target: Potassium channel subfamily K member 9 (Homo sapiens) (UniProt Q9NPC2)
Sequence (Q9NPC2 whole entry, looked up): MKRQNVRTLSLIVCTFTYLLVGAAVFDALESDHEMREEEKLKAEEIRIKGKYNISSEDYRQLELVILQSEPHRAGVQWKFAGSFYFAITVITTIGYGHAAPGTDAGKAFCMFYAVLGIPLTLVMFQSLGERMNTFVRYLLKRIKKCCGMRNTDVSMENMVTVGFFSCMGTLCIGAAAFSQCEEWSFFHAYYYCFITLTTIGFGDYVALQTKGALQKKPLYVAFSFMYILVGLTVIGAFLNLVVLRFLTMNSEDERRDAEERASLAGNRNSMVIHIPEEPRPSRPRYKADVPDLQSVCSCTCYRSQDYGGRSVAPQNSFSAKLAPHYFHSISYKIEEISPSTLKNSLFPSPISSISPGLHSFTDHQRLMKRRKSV
Assay: blockers of human TASK-3 (KCNK9) channel – HEK293 cells, thallium flux, primary screen (AID 488922)
Details: HEK293 KCNK9, FluxOR thallium flux fluorescence, at 10 µM
Out of some 310,000 compounds screened, about 3,800 (1.2%) were called active.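 The calls were made as follows: active = ratio B-score over 3 SD below the library mean, with starting fluorescence within 5 SD of its mean; inactive = the rest, inconclusive results apart.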 Only a selection was taken, and actives are over-represented in it overall.
Classes used: active, inactive

> print(dat)
                                    compound  answer.label
 1  O=C(NCc1ccco1)c1ccc(NS(=O)(=O)c2cccc([N+](=O)[O-])c2)cc1        active
 2  Cc1ccc(CCNC(=O)c2ccc3nc4ccccc4c(=O)n3c2)cc1      inactive
 3                            CN1CC(=O)N=C1N      inactive
 4  Cc1ccc(N2CC(C(=O)Nc3ccc(S(=O)(=O)N4CCCC4)cc3)CC2=O)cc1C (stereo unspecified)      inactive
 5  CCC(=O)N1CCN(c2ccccc2NC(=O)COc2cccc(C)c2C)CC1      inactive
 6              Cc1nonc1NC(=O)c1oc2ccccc2c1C      inactive
 7  Cc1ccc2oc(C(=O)N3CCN(C)C[C@@H]3C(C)C)c(C)c2c1      inactive
 8          CC(C)(C)Oc1ncc(Br)c(OC(C)(C)C)n1      inactive
 9      CC[n+]1cc(C)ccc1/C=C/c1ccc(N(C)C)cc1        active
10  O=C(c1ccc(F)cc1)N1CCC(C(=O)N2CCN(S(=O)(=O)c3ccccc3Br)CC2)CC1      inactive
11  O=C(NCc1ccncc1)c1ccc(NS(=O)(=O)c2cccc([N+](=O)[O-])c2)cc1      inactive
12  COc1ccc(C2=NS(=O)(=O)N(C)C(C(=O)N3CCCCC3)=C2)cc1      inactive
13  O=C(c1ccccc1Cl)N(Cc1ccccc1F)N1C(=O)CCCC1=O      inactive
14    O=C(Nc1cccc(CCc2ccccn2)c1)c1ccc(Cl)cc1      inactive
15         O=C(Nc1nonc1-c1ccc(Cl)cc1)c1ccco1      inactive
16   O=C(COc1ccc(Cl)cc1Cl)NCCCNC(=O)c1cnccn1      inactive
17  CCOC(=O)Cc1cc(=O)[nH]c(/N=C(\N)Nc2ccc(OC)cc2)n1      inactive
18  O=C(Nc1ccc(O)cc1)c1ccc(NC(=O)c2ccco2)cc1      inactive
19  CC(C)(C)n1nnnc1C(c1ccc2ncccc2c1)N1CCSCC1 (stereo unspecified)      inactive
20  COc1cccc(-c2cnc(OC(C)(C)C)nc2OC(C)(C)C)c1        active
21           CCOC(=O)Cc1cc(=O)[nH]c(=O)[nH]1        active
22  COc1ccc(-c2cnc(SCCNC(=O)c3ccc4c(c3)OCO4)[nH]2)cc1      inactive
23       CCOCCCNC(=O)Cc1cc(=O)[nH]c(=O)[nH]1      inactive
24  CCC(C)(C)n1nnnc1C(c1ccccc1OC)N1CCSCC1 (stereo unspecified)        active
25        OCCCNc1nc(-c2ccccc2)c2cc(Cl)ccc2n1      inactive
26  COc1ccccc1C(c1nnnn1CC1CCCO1)N1CCN(c2ccccc2)CC1 (stereo unspecified)      inactive
27  Cc1ccc(OCC(=O)Nc2ccc(NC(=O)c3cccs3)cc2)c(C)c1      inactive
28  Cc1cccc(C(=O)Nc2ccc(C(=O)N/N=C/c3cccc(C)n3)cc2)c1      inactive
29  COc1ccccc1C(c1nnnn1C(C)(C)C)N1CCN(Cc2ccccc2)CC1 (stereo unspecified)        active
30  CC1CCN(S(=O)(=O)c2nnc(NC(=O)COc3ccccc3F)s2)CC1      inactive
31  CCOc1ccccc1N1CCN(C(=S)Nc2ccc(S(N)(=O)=O)cc2)CC1      inactive
32  O=C(Nc1ccccc1[N+](=O)[O-])C1C(c2ccccc2)=C1c1ccccc1        active
33     N/C(=N\S(=O)(=O)c1ccc(Cl)cc1)N1CCOCC1      inactive
34                     O=C(Nc1ccccc1)c1ccco1      inactive
35  O=C(NCCN1CCOCC1)c1ccc2c(c1)N(Cc1ccc(Cl)cc1)CCS2      inactive
36                C=C(Br)CN1CCN(CC(=C)Br)CC1      inactive
37  CC1=CC(=C(C#N)c2nc3ccccc3s2)C=C(C)N1c1ccc(F)cc1F      inactive
38  CCC(C)(C)n1nnnc1C(c1cccs1)N1CCN(c2nc3ccccc3s2)CC1 (stereo unspecified)        active
39        Cc1c(C(=O)Nc2ccccn2)oc2ccc(Br)cc12        active
40                 Cc1ccc(SCC2=NNC(=O)C2)cc1      inactive
41  CC1(c2ccccc2)CC(C)(C)N(C(=O)c2cc([N+](=O)[O-])cc([N+](=O)[O-])c2)c2ccccc21 (stereo unspecified)      inactive
42        O=C(CNC1CCCCC1)NCC1(c2ccccc2)CCCC1        active
43          COc1ccccc1-c1nnc(-c2ccc(F)cc2)o1      inactive
44                CNC(=O)C(=O)N/N=C/c1ccccn1      inactive
45  COc1ccc(-c2nc(N)ncc2-c2ccc(Cl)cc2)c(O)c1      inactive
46  COc1cc(C(=O)NCC2(c3ccccc3)CCCC2)ccc1OC(C)C      inactive
